Data provenance: patent US20200255503A1

- measured target: natural Fel d1 (cat (Felis domesticus)) (UniProt P30438)
- measurement protocol: SPR, mAb captured, nFel d1 injected, 25 C
Attribute: koff

binder: H4H2608B (antibody, human IgG4, V domains shown) VH: EVQLVESGGGLVKPGGSLRLSCAASGFTFSDYYMNWIRQAPGKGLEWISYISSSDDTTYYADSVKGRFTISRDNAKNSLYLQMNSLRAEDTAVYYCARDGKYNTVAGDHWGQGTLVTVSS VL: EIVMTQSPDFQSVAPKEKVTITCRASQNIGSSLHWYQQKPDQSPKLLIKYASQSFSGVPSRFSGSGSGTDFTLTINSLEAEDAATYYCLQSYTLRTFGQGTKVEIKR
koff: 0.00106 s⁻¹
//
binder: H4H2590S (antibody, human IgG4, V domains shown) VH: QVQLVESGGGLVKPGGSLRLSCAASGFTFSDYYMNWIRQAPGKGLEWISYISSGGSTTYYADSVKGRFTISRDNAKNSLYLQMNSLRAEDTAVYYCARDGKYNTSPGDYWGQGTLVTVSS VL: EIVLTQSPDFQSVTPKEKVTITCRASQSIGSSLHWYQQKPDQSPKLLIKYASQSFSGVPSRFSGSGSGTDFTLTINSLEAEDAATYYCLQSSSLRTFGQGTKVDIK
koff: 0.000802 s⁻¹

# evaluate next
Recorded koff (binder H4H2597B (antibody, human IgG4, V domains shown) VH: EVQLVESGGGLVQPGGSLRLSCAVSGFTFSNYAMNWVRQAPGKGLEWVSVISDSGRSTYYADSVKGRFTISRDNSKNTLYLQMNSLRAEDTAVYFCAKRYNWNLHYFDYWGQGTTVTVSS VL: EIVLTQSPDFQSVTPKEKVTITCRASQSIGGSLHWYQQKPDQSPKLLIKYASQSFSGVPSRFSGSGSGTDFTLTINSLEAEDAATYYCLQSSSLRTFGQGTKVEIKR ): 0.0015 s⁻¹
